Recorded values, source patent US20240075137A1.

- target-system: T1, cynomolgus PVRIG on cells (cynomolgus, UniProt A0A2K5WVV8 41-322)
- T1 construct: whole, on cells; also called cPVRIG; expi cPVRIG cells
- T1 sequence: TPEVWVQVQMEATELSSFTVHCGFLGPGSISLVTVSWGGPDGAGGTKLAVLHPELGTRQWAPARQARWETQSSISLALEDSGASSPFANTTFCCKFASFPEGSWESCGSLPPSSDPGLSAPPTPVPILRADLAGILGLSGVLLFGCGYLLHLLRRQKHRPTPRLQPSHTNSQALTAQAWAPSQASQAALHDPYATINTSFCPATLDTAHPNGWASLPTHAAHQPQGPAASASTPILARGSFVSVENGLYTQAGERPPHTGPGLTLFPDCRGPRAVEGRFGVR
- assay-summary: FACS, cyno PBMC, NK cells, 10ug/ml
readout-name: gMFIr Cyno NK cells

- CHA.7.524 (antibody, V domains shown) VH: QVQLQQSGPEVVRPGVSVKISCKGSGYKFPDYVMHWVKQSHAKSLEWIGIISIYSGNTNYNQKFKGKATMTVDKSSSTAYMELARLTSEDSAIYYCAREGDLPMFAYWGQGTLVTVSA VL: QIVLTQSPAIMSASPGEKVTMTCNASSSVSYMYWYQQKPISSPRLLIYDTSNLASGVPVRFSGSGSGTSYSLTIGRMEAEDAATYYCQQWSSYPLTFGAGTKVEVK: 1.78
- CHA.7.528 (antibody, V domains shown) VH: EVQVQQSGPELVKPGASVKISCKASGYTFTKSNMHWVKQSHGKSLEWIGYIYPYNGGTGYNQNFKSKATLTVDISSSTAYMELRSLTLEDSAVYLCAREADYYGNRGQFDYWGQGTLVTVSA VL: DIQMTQSPASLSVSVGETVTITCRASDNIFSNLAWYHQKQGKSPHLLVYGATNLADGVPSRFSGSGSGTQYSLKINSLQSEDFGDYYCQHFWGTPYTFGGGTKLEIK: 1.21
- CHA.7.548 (antibody, V domains shown) VH: EVQLQQSGPELVKPGASVKISCKASGYTFTDYSMNWVKQSHGKSLEWIGDITPNNGSPNYNQKFKDKATLTVDKSSSTVYMELRSLTSEDSAVYYCASLFFDYWGHGTTLTVSS VL: DIVMTQSPSSLSVSAGEKVTMSCKSSQSLLNSGNQKNYLAWYQQKPGQPPKLLIYGASTRDSGVPDRFTGSGSGTDFTLTITSVQAEDLAVYYCQNDHTYPYTFGGGTKLEIK: 1.18
